- Test system: DU-145
- test.details: Cytotoxicity against human DU145 cells by sulforhodamine B assay
- Type: functional, cell-based
The entries below come with measured EC50 values attached.
Numbers only; they are read as µM.

Some compounds with known EC50 results, for comparison:
• CCN1C[C@]2(C)CC[C@H](OC)[C@@]34C1[C@@]1(OCO[C@@]15C[C@H](OC)[C@H]1C[C@@H]3[C@@H]5[C@H]1OC)[C@@H](OC(=O)c1cc(F)c(F)c(F)c1)[C@H]24 (single isomer, unassigned) = 16.9
• CCOc1ccc(C(=O)O[C@H]2[C@@H]3[C@@]4(C)CC[C@H](OC)[C@]35C(N(CC)C4)[C@@]23OCO[C@@]32C[C@H](OC)[C@H]3C[C@@H]5[C@@H]2[C@H]3OC)cc1 (single isomer, unassigned) = 15.6
• CCN1C[C@]2(C)CC[C@H](OC)[C@@]34[C@@H]5C[C@H]6[C@H](OC)[C@@H]5[C@@]5(C[C@@H]6OC)OCO[C@@]5([C@@H](OC(=O)/C=C/c5cccc(C(F)(F)F)c5)[C@H]23)[C@@H]14 = 15.1
• CCN1C[C@]2(C)CC[C@H](OC)[C@@]34[C@@H]5C[C@H]6[C@H](OC)[C@@H]5[C@@]5(C[C@@H]6OC)OCO[C@@]5([C@@H](OC(=O)c5ccc(C(F)(F)F)c(F)c5)[C@H]23)[C@@H]14 = 11.3

Now turn to the next compound.
Entry CCN1C[C@]2(C)CC[C@H](OC)[C@@]34C1[C@@]1(OCO[C@@]15C[C@H](OC)[C@H]1C[C@@H]3[C@@H]5[C@H]1OC)[C@@H](OC(=O)c1ccc(-c3ccccc3)cc1)[C@H]24 (single isomer, unassigned) has what EC50?
17.1
